Target: TAFIa (Homo sapiens)
Sequence (Q96IY4 115-423): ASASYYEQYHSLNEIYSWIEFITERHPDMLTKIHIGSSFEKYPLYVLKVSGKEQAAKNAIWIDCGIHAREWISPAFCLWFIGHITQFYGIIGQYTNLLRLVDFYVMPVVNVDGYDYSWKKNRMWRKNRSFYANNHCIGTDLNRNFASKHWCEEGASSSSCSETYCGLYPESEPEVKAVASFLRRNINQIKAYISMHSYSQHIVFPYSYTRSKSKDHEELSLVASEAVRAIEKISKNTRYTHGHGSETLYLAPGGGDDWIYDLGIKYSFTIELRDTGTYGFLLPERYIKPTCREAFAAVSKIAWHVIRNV
Assay: Inhibition of TAFIa (hippuryl-Arg test)
Assay type: biochemical
Conditions: compound at 10 nM; TAFIa 2 nM, hippuryl-arginine 5 mM, 45 minutes; relative to control containing the carrier
Readings of inhibition at 0.01 µM for the listed molecules
Write the number in % without appending the unit.

Below are worked cases with known answers.
- NCCCC[C@@]1(C(=O)O)CN(Cc2ccccc2-c2cncc3ccccc23)CCP1(=O)O: 74
- NCCCC[C@@]1(C(=O)O)CN(Cc2ccccc2-c2cc[nH]c(=O)c2)CCP1(=O)O: 70

Field request: inhibition at 0.01 µM | item: CC(C)c1ccccc1CN1CCP(=O)(O)C(CCCCN)(C(=O)O)C1 (stereo not shown)
43

Field request: inhibition at 0.01 µM | item: COc1ccc(-c2cc(O)ccc2CN2CCP(=O)(O)[C@](CCCCN)(C(=O)O)C2)cc1OC
81

Field request: inhibition at 0.01 µM | item: Cc1ccc(-c2cc(Cl)ccc2CN2CCP(=O)(O)[C@](CCCCN)(C(=O)O)C2)cc1
67

Field request: inhibition at 0.01 µM | item: Cn1cncc1-c1cc(F)ccc1CN1CCP(=O)(O)[C@](CCCCN)(C(=O)O)C1
66

Field request: inhibition at 0.01 µM | item: CS(=O)(=O)c1ccccc1-c1ccccc1CN1CCP(=O)(O)[C@](CCCCN)(C(=O)O)C1
35

Field request: inhibition at 0.01 µM | item: NCCCCC1(C(=O)O)CN(Cc2ccsc2-c2ccccc2)CCP1(=O)O (stereo not shown)
44

Field request: inhibition at 0.01 µM | item: Cn1nc(C(F)(F)F)cc1-c1ccccc1CN1CCP(=O)(O)[C@](CCCCN)(C(=O)O)C1
80

Field request: inhibition at 0.01 µM | item: Cc1ncc(-c2cc(F)ccc2CN2CCP(=O)(O)[C@](CCCCN)(C(=O)O)C2)n1C
92

Field request: inhibition at 0.01 µM | item: NCCCC[C@@]1(C(=O)O)CN(Cc2ccc(O)cc2-c2cccs2)CCP1(=O)O
84

Field request: inhibition at 0.01 µM | item: COc1cc(-c2cc(F)ccc2CN2CCP(=O)(O)[C@](CCCCN)(C(=O)O)C2)ccc1F
69

Field request: inhibition at 0.01 µM | item: Cc1ncc(-c2cc(O)ccc2CN2CCP(=O)(O)[C@](CCCCN)(C(=O)O)C2)n1C
88

Field request: inhibition at 0.01 µM | item: Cc1ccc(-c2cc(O)ccc2CN2CCP(=O)(O)[C@](CCCCN)(C(=O)O)C2)cc1
71

Field request: inhibition at 0.01 µM | item: NCCCC[C@@]1(C(=O)O)CN(Cc2ccc(F)cc2-c2ccc(O)cc2)CCP1(=O)O
85

Field request: inhibition at 0.01 µM | item: COc1cc(-c2ccccc2CN2CCP(=O)(O)[C@](CCCCN)(C(=O)O)C2)ccn1
75

These measurements were taken from patent US10138260B2.
